# System: MCF-7 cells
# run description: In vitro anti-tumor effect, CellTiter 96 viability assay
# Type: cell-based
# conditions: Homo sapiens, MCF7, light or radiation study, compound 3 h, then X-rays 10 Gy or 30 Gy, 72 h after irradiation, read-out: Irradiation with 10 Gy or 30 Gy IC50
property label: IC50 (µM)

Example entries begin here.
- compound: "Cc1ncsc1-c1ccc([C@H](C)NC(=O)[C@@H]2C[C@@H](OC(=O)OCc3c(F)c(F)c(N=[N+]=[N-])c(F)c3F)CN2C(=O)[C@H](NC(=O)CCCCCCCCCCNC(=O)C[C@@H]2N=C(c3ccc(Cl)cc3)c3c(sc(C)c3C)-n3c(C)nnc32)C(C)(C)C)cc1"
  IC50 (µM): 0.146
- compound: "COc1cc(CC(CCCCNc2cccc3c2C(=O)N(C2CCC(=O)NC2=O)C3=O)C(=O)C[C@@H]2N=C(c3ccc(Cl)cc3)c3c(sc(C)c3C)-n3c(C)nnc32)cc(OC)c1 (stereo partly shown)"
  IC50 (µM): 0.338

(A) Cc1sc2c(c1C)C(c1ccc(Cl)cc1)=N[C@@H](CC(=O)C(CCCCNc1cccc3c1C(=O)N(C1CCC(=O)NC1=O)C3=O)Cc1c(F)c(F)c(F)c(F)c1F)c1nnc(C)n1-2 (stereo partly shown)
(B) COc1cc(COC(=O)O[C@@H]2C[C@@H](C(=O)N[C@@H](C)c3ccc(-c4scnc4C)cc3)N(C(=O)[C@H](NC(=O)CCOCc3cn(CCOCCNC(=O)C[C@@H]4N=C(c5ccc(Cl)cc5)c5c(sc(C)c5C)-n5c(C)nnc54)nn3)C(C)(C)C)C2)cc(OC)c1 [Compound D2]
Please state the entry with greater IC50 among A and B . // return label of chosen record
A
(A: 0.273 µM, B: 0.127 µM)

====

# Tested on: MCF-7 cells
# run description: In vitro anti-tumor effect, CellTiter 96 viability assay
# Type: cell-based
# conditions: Homo sapiens, MCF7, light or radiation study, compound 3 h, then X-rays 10 Gy or 30 Gy, 72 h after irradiation, read-out: Irradiation with 10 Gy or 30 Gy IC50
pIC50: −log10 of the molar value.
property label: pIC50

- compound: "COc1cc(COC(=O)O[C@@H]2C[C@@H](C(=O)N[C@@H](C)c3ccc(-c4scnc4C)cc3)N(C(=O)[C@H](NC(=O)COCCOCCOCCNC(=O)C[C@@H]3N=C(c4ccc(Cl)cc4)c4c(sc(C)c4C)-n4c(C)nnc43)C(C)(C)C)C2)cc(OC)c1 [Compound A2]"
  experimental target: "MCF-7 cells"
  pIC50: 6.99
- compound: "COc1cc(COC(=O)O[C@@H]2C[C@@H](C(=O)N[C@@H](C)c3ccc(-c4scnc4C)cc3)N(C(=O)[C@H](NC(=O)COCCCOCCNC(=O)C[C@@H]3N=C(c4ccc(Cl)cc4)c4c(sc(C)c4C)-n4c(C)nnc43)C(C)(C)C)C2)cc(OC)c1 [Compound B2]"
  experimental target: "MCF-7 cells"
  pIC50: 6.92
- compound: "COc1cc(COC(=O)N2C(=O)CCC(N3C(=O)c4cccc(NCCCCNC(=O)C[C@@H]5N=C(c6ccc(Cl)cc6)c6c(sc(C)c6C)-n6c(C)nnc65)c4C3=O)C2=O)cc(OC)c1 (some centres unmarked) [Compound D3]"
  experimental target: "MCF-7 cells"
  pIC50: 6.98
- compound: "COc1cc(COC(=O)O[C@@H]2C[C@@H](C(=O)N[C@@H](C)c3ccc(-c4scnc4C)cc3)N(C(=O)[C@H](NC(=O)CCCCCCCCCCNC(=O)C[C@@H]3N=C(c4ccc(Cl)cc4)c4c(sc(C)c4C)-n4c(C)nnc43)C(C)(C)C)C2)cc(OC)c1 [Compound C2]"
  experimental target: "MCF-7 cells"
  pIC50: 6.97
- compound: "Cc1ncsc1-c1ccc([C@H](C)NC(=O)[C@@H]2C[C@@H](OC(=O)OCc3c(F)c(F)c(N=[N+]=[N-])c(F)c3F)CN2C(=O)[C@H](NC(=O)CCOCc2cn(CCOCCNC(=O)C[C@@H]3N=C(c4ccc(Cl)cc4)c4c(sc(C)c4C)-n4c(C)nnc43)nn2)C(C)(C)C)cc1 [Compound D1]"
  experimental target: "MCF-7 cells"
  pIC50: 6.82

(A) Cc1ncsc1-c1ccc([C@H](C)NC(=O)[C@@H]2C[C@@H](OC(=O)OCc3c(F)c(F)c(N=[N+]=[N-])c(F)c3F)CN2C(=O)[C@H](NC(=O)COCCCOCCNC(=O)C[C@@H]2N=C(c3ccc(Cl)cc3)c3c(sc(C)c3C)-n3c(C)nnc32)C(C)(C)C)cc1 [Compound B1]
(B) Cc1sc2c(c1C)C(c1ccc(Cl)cc1)=N[C@@H](CC(=O)NCCCCNc1cccc3c1C(=O)N(C1CCC(=O)N(C(=O)OCc4c(F)c(F)c(N)c(F)c4F)C1=O)C3=O)c1nnc(C)n1-2 (some centres unmarked) [Compound C3]
Please state the entry with greater pIC50 among A and B . // return label of chosen record
A
